Tested on: Candida albicans
ASSAY NAME: Antimicrobial activity against Candida albicans NCIM 3471 by broth dilution technique
Assay type: functional
PARAMETER MEASURED: MIC (µg/mL)
Reply with just the number (in µg/mL).

1) COc1cc2c(cc1OC)C1=NN(C(N)=O)C(c3ccccc3Cl)C1C2 (stereo not drawn) : 128
2) COc1cc2c(cc1OC)C1=NN(C(N)=O)C(c3ccc(F)cc3)C1C2 (stereo not drawn) : 128
3) COc1ccc(C2C3Cc4cc(OC)c(OC)cc4C3=NN2C(N)=S)cc1OC (stereo not drawn) : 16
4) COc1cc2c(cc1OC)C1=NN(C(N)=O)C(c3ccncc3)C1C2 (stereo not drawn) : 256
5) COc1cc2c(cc1OC)C1=NN(C(N)=S)C(c3ccncc3)C1C2 (stereo not drawn) : 128
6) COc1ccc(C2C3Cc4cc(OC)c(OC)cc4C3=NN2C(N)=O)cc1 (stereo not drawn) : 2
7) COc1cc2c(cc1OC)C1=NN(C(N)=O)C(c3ccccc3)C1C2 (stereo not drawn) : 128

// below: MIC requested for another compound
Prompt: Which MIC value is on record for COc1ccc(C2C3Cc4cc(OC)c(OC)cc4C3=NN2C(N)=O)cc1OC (stereo not drawn) ?
Response: 32
